Molecular target: human PAD4 (hPAD4) (Homo sapiens)
Test: RFMS human PAD4 functional assay (rapid-fire mass spectrum)
Details: 5 nM hPAD4 enzyme, 250 μM BAEE, 50 μM Calcium; 30 min preincubation, 90 min reaction at 37° C.
Experimental endpoint: log10 IC50 (log10 of the value in nM)

In [3]: df
Out[3]:
                                   molecule                             target  readout_value
0  COc1cc(C(=O)N2CC3CCC2[C@@H]3N)cc2nc(-c3cc4cccnc4n3CC3CC3)n(C3CN(S(=O)(=O)c4ccc(C#N)cc4)C3)c12 (stereo partly drawn)  human PAD4 (hPAD4) (Homo sapiens)           2.73
1  Cc1cc(C(=O)N2CC3CCC2[C@@H]3N)cc2nc(-c3cc4cccnc4n3CC3CC3)n(CC3CN(C(=O)c4ccc(C#N)cc4)C3)c12 (stereo partly drawn)  human PAD4 (hPAD4) (Homo sapiens)           2.36
2  COc1cc(C(=O)N2C[C@H](N)C[C@@H](F)C2)cc2nc(-c3cc4cccnc4n3CC3CC3)n(Cc3cnn(-c4cccc(O)n4)c3)c12  human PAD4 (hPAD4) (Homo sapiens)           1.86
3  Cn1cc(Cn2c(-c3cc4cccnc4n3CC3CC3)nc3cc(C(=O)N4CC5CCC4[C@@H]5N)cc(Cl)c32)cn1 (stereo partly drawn)  human PAD4 (hPAD4) (Homo sapiens)           1.92
4  COc1cc(C(=O)N2C[C@H](N)C[C@@H](F)C2)cc2nc(-c3cc4ccccc4n3CC3CC3)n(CCC3CCS(=O)(=O)CC3)c12  human PAD4 (hPAD4) (Homo sapiens)           1.54
5  COc1cc(C(=O)N2C[C@H](N)CC[C@@H]2C)cc2nc(-c3cc4cccnc4n3CC3CC3)n(CC3CN(C(=O)c4ccccc4)C3)c12  human PAD4 (hPAD4) (Homo sapiens)           2.25

====

Molecular target: human PAD4 (hPAD4) (Homo sapiens, UniProt Q9UM07)
Sequence (Q9UM07 whole entry): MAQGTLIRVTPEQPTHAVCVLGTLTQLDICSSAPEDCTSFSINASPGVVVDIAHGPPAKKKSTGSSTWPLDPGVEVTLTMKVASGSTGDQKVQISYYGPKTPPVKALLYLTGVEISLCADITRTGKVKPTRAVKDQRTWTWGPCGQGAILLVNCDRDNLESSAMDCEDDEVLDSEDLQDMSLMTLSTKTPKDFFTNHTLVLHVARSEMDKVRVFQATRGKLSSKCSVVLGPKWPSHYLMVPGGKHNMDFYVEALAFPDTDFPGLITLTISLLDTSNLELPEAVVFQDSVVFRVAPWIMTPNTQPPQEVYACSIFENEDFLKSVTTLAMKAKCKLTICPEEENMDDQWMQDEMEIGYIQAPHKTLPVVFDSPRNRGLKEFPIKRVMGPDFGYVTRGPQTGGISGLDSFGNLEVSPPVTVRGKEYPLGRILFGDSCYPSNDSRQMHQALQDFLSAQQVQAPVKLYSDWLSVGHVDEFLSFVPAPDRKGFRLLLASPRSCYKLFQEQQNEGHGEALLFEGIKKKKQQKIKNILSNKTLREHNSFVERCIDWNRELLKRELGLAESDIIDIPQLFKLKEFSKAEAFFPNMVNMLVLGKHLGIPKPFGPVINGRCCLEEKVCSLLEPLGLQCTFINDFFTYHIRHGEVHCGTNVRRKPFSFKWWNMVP
Test: RFMS human PAD4 functional assay (rapid-fire mass spectrum)
Type: biochemical
Details: 5 nM hPAD4 enzyme, 250 μM BAEE, 50 μM Calcium; 30 min preincubation, 90 min reaction at 37° C.
Experimental endpoint: IC50

                                   compound  experimental_endpoint  readout_value
0  COc1cc(C(=O)N2C[C@H]3CC[C@@H]2[C@@H]3N)cc2nc(-c3cc4cc(Cl)ccc4n3C)n(CC3CN(c4cncc(C#N)c4)C3)c12                   IC50         169 nM
1  COc1cc(C(=O)N2CC3CCC2[C@@H]3N)cc2nc(-c3cc4cccnc4n3CC3CC3)n(CCNC(C)=O)c12 (stereo partly drawn)                   IC50        1290 nM
2  COc1cc(C(=O)N2CC3CCC2[C@@H]3N)cc2nc(-c3cc4ccccc4n3CC3CC3)n(Cc3cn(C)nc3C)c12 (stereo partly drawn)                   IC50          78 nM
3  COc1cc(C(=O)N2C[C@H]3CC[C@@H]2[C@@H]3N)cc2nc(-c3cc4cccnc4n3CC3CC3)n(C3CN(C(=O)c4ccnc(Cl)n4)C3)c12                   IC50          34 nM
4  COc1cc(C(=O)N2C[C@H]3CC[C@@H]2[C@@H]3N)cc2nc(-c3cc4cccnc4n3CC3CC3)n(CC3CN(C(=O)c4ccnc(N)n4)C3)c12                   IC50         102 nM
5  COc1cc(C(=O)N2C[C@H]3CC[C@@H]2[C@@H]3N)cc2nc(-c3cc4cccnc4n3CC3CC3)n(CC3CCN(C(=O)c4ccnc(Cl)c4)CC3)c12                   IC50         131 nM
